- tested_system: human glucagon receptor (GCGR) (human, UniProt P47871 26-477)
- method_description: cell-based or functional assay
Where no end group is shown, it is not given here. [ ]: non-standard residue; d: D form. Formula III = not defined here; Formula II = not defined here; Aib = CC(C)(N)C(=O)O
Could you mark each record yes if its GluR pEC 50 falls strictly under 10 pEC50, and no if it equals or exceeds it?

Reference set (2 entries):
> print(dat)
                                     binder  class
1  YSQGTFTSDYSKYLDAARAQEFVK(Formula III)WLEDEPKSKSPPPS-NH2 (reading uncertain) [Compound B38]    yes
2  YSHGTFTSDK(Formula III)SKYLD[Aib]KRAQEFVIWLEDEPSSGAPPPS-OH (reading uncertain) [Compound B32]    yes

Next binder, please.
Is GluR pEC 50 of YSQGTFTSDYSKYLDAARAQEFVKWLEDEPKSK(Formula II)SPPPS-NH2 (reading uncertain) [Compound B33] strictly below 10 pEC50?
no
